The measurements presented in this section are drawn from patent US20090093443A1.

System: animal fouling
PROCEDURE_DETAILS: Exposure in the Oosterschelde of painted PVC boards
CONDITION_PARAMETERS: fouling inhibition vs control, by coverage; 18 weeks; each active 2.78% in dry paint
READOUT_NAME: Coverage % Eo (observed efficacy) (%)
Numbers only, in %.

{"STRUCTURE_STRING": "Clc1cccc(Cl)c1N=C1NCCN1", "NUMERIC_VALUE": "−36.8"}
{"STRUCTURE_STRING": "O=C(O)/C=C/c1ccc(OS(=O)(=O)O)cc1", "NUMERIC_VALUE": "−8.5"}
{"STRUCTURE_STRING": "COc1cc(CNC(=O)CCCC/C=C/C(C)C)ccc1O", "NUMERIC_VALUE": "−22.6"}

# context switch: different compound, same Coverage % Eo (observed efficacy)
Quick check: Coverage % Eo (observed efficacy) on animal fouling, item "N#Cc1c(-c2ccc(Cl)cc2)[nH]c(C(F)(F)F)c1Br" ?
19.8
